Test system: endometrial cancer organoids
ASSAY EXPLANATION: Patient-derived endometrial cancer organoid cell viability (CellTiter-Glo)
Assay type: cell-based, human
TEST CONDITIONS: 50 μM, monotherapy; viability normalized to vehicle = 100
READOUT NAME: Flavonoids screening on endometrial cancer cell organoids, Average
Keep the answer to the number alone.

Here's what some known entries look like.
Given item O=c1cc(-c2ccc(O)c(O)c2)oc2cc(O)cc(O)c12 , the value recorded as its Flavonoids screening on endometrial cancer cell organoids, Average is 0.00

Given item O=c1c(O)c(-c2ccccc2)oc2cc(O)cc(O)c12 , the value recorded as its Flavonoids screening on endometrial cancer cell organoids, Average is 49.62

Given item O=c1c(O)c(-c2ccccc2)oc2ccccc12 [3-hydroxyflavone] , the value recorded as its Flavonoids screening on endometrial cancer cell organoids, Average is 37.88

Let us move to another entry and its Flavonoids screening on endometrial cancer cell organoids, Average.
Given item O=c1c(O)c(-c2ccc(O)c(O)c2)oc2cc(O)cc(O)c12 , the value recorded as its Flavonoids screening on endometrial cancer cell organoids, Average is 34.67

----------
Test system: endometrial cancer organoids
ASSAY EXPLANATION: Patient-derived endometrial cancer organoid cell viability (CellTiter-Glo)
Assay type: cell-based, human
TEST CONDITIONS: 40 μM, monotherapy; viability normalized to vehicle = 100
READOUT NAME: Flavonoids screening on endometrial cancer cell organoids, Average
Keep the answer to the number alone.

Here's what some known entries look like.
Reported endometrial cancer organoids Flavonoids screening on endometrial cancer cell organoids, Average for item O=c1c(O)c(-c2ccccc2)oc2ccccc12 [3-hydroxyflavone] was 41.00

Reported endometrial cancer organoids Flavonoids screening on endometrial cancer cell organoids, Average for item O=c1c(O)c(-c2ccccc2)oc2cc(O)cc(O)c12 was 69.20

Continuing:
Reported endometrial cancer organoids Flavonoids screening on endometrial cancer cell organoids, Average for item O=c1c(O)c(-c2ccc(O)c(O)c2)oc2cc(O)cc(O)c12 was 58.16

Reported endometrial cancer organoids Flavonoids screening on endometrial cancer cell organoids, Average for item O=c1cc(-c2ccc(O)c(O)c2)oc2cc(O)cc(O)c12 was 1.39

----------
Test system: endometrial cancer organoids
ASSAY EXPLANATION: Patient-derived endometrial cancer organoid cell viability (CellTiter-Glo)
Format: cell-based, human
TEST CONDITIONS: 30 μM, monotherapy; viability normalized to vehicle = 100
Listed here: items and their measured Flavonoids screening on endometrial cancer cell organoids, Average.
Keep the answer to the number alone.

Given item O=c1c(O)c(-c2ccccc2)oc2ccccc12 [3-hydroxyflavone] , the value recorded as its Flavonoids screening on endometrial cancer cell organoids, Average is 51.28

Given item O=c1c(O)c(-c2ccc(O)c(O)c2)oc2cc(O)cc(O)c12 , the value recorded as its Flavonoids screening on endometrial cancer cell organoids, Average is 85.33

Given item O=c1cc(-c2ccc(O)c(O)c2)oc2cc(O)cc(O)c12 , the value recorded as its Flavonoids screening on endometrial cancer cell organoids, Average is 33.96

Given item O=c1c(O)c(-c2ccccc2)oc2cc(O)cc(O)c12 , the value recorded as its Flavonoids screening on endometrial cancer cell organoids, Average is 96.96

----------
Listed here: items and their measured Flavonoids screening on endometrial cancer cell organoids, Average.
Tested on: endometrial cancer organoids
ASSAY EXPLANATION: Patient-derived endometrial cancer organoid cell viability (CellTiter-Glo)
Format: cell-based, human
TEST CONDITIONS: 80 μM, monotherapy; viability normalized to vehicle = 100
Keep the answer to the number alone.

Given item O=c1c(O)c(-c2ccccc2)oc2ccccc12 [3-hydroxyflavone] , the value recorded as its Flavonoids screening on endometrial cancer cell organoids, Average is 34.31

Given item O=c1cc(-c2ccc(O)c(O)c2)oc2cc(O)cc(O)c12 [Luteolin] , the value recorded as its Flavonoids screening on endometrial cancer cell organoids, Average is 0.00

Given item O=c1c(O)c(-c2ccccc2)oc2cc(O)cc(O)c12 [Galangin] , the value recorded as its Flavonoids screening on endometrial cancer cell organoids, Average is 25.66

Continuing:
Given item O=c1c(O)c(-c2ccc(O)c(O)c2)oc2cc(O)cc(O)c12 [Quercetin] , the value recorded as its Flavonoids screening on endometrial cancer cell organoids, Average is 7.88
